# assayTarget: T1, human Sirt5 (human, UniProt Q9NXA8 37-310, labelled with fluorescein isothiocyanate (sites not given))
# T1 construct: Sirt5, human; a 'gene fragment' cloned into pET151/D-Topo
# T1 sequence (looked up): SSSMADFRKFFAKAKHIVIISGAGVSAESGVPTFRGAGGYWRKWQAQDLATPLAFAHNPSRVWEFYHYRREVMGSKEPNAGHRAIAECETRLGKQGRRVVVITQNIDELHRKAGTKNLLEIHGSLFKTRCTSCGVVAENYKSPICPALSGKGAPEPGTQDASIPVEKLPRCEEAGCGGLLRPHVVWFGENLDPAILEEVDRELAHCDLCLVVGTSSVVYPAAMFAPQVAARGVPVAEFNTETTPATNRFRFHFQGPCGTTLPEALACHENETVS
# measurementNotes: MST; ligand (peptide) titrated to 100 nM fluorescein-labelled Sirtuin; mixtures preincubated 30 min at room temperature; Monolith NT.115; non-linear fitting in GraFit
# testContext: both partners purified
No end group written: not given here.
Quick reference: Kd of the listed items.
Kindly provide the numeric value in nM only, without the unit symbol.

FKRGVLK(Ac)EYGVKV (carbamoyl phosphate synthetase 1 (CPS1), stretch around the acetylation site Lys527; also called CPS1 peptide; source: synthetic peptide, bought: GL Biochem (Shanghai)) [CPS1-Lys527 peptide (FKRGVL(acK)EYGVKV)] : 2300

Let's switch to this binder now.
Documented Kd of TRSGK(Ac)VMR (acetyl-CoA synthetase 2 (ACS2), stretch around the acetylation site Lys642; also called ACS2 peptide; source: synthetic peptide, bought: GL Biochem (Shanghai)) [ACS2-Lys642 peptide (TRSG(acK)VMR)] : 2100
